- Tested On: T1, p73CT (Homo sapiens, UniProt O15350 104-383)
- T1 sequence: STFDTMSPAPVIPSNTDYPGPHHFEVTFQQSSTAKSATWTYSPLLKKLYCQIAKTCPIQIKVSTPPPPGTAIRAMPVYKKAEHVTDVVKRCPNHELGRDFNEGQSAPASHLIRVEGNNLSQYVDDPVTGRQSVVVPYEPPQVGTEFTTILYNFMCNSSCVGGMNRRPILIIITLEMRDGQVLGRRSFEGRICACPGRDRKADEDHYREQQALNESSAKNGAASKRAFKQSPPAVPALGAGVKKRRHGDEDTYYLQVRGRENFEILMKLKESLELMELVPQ
- Run Description: fluorescence anisotropy competition titration; 25 mM sodium phosphate (purification buffer pH 7.2), 225 mM NaCl, 10% v/v glycerol, 5 mM DTT, 0.2 mg/mL BSA, 22 C
- Assay Setup: protein: recombinant; tags: N-terminal 6xHis-lipoyl-TEV tag, cleaved; chain copies: 4
Metric: Kd
Please provide the amount together with its unit, number first.

Kd recorded for this binder, Ref competitor (dsDNA) DNA 1: CGCGGACATGTCCGGACATGTCCCGC DNA 2: GCGGGACATGTCCGGACATGTCCGCG , is 148 nM
